assay: M. tuberculosis H37Rv growth inhibitors, H37Rv strain (AID 1626); settings: active compounds read high, concentration not given here;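 further: bacteria incubated seven days before Alamar blue readout; 0% = bacteria only wells and 100% = bacteria with antibiotic wells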
Among all 220,000 compounds or so, about 2,000 (0.91%) were called active. Roughly 2% stayed inconclusive and do not appear here. The list is a sample of the results. Results with a measured potency or affinity are listed apart.
Reported inhibition values follow for various compounds

Would you please look over these solved cases?
• CC(C)CNC(=O)c1cccc(NC(=O)C(C)Oc2ccccc2)c1 (configuration not stated) = 9.89% (inactive)
• CCCCCC/C(=N/O)c1ccccn1 = -3.95% (inactive)
• COc1cc(OC)cc(C(=O)Nc2ccc(-c3nc4ccccc4o3)c(O)c2)c1 = 66.5% (inactive)

# compound CCc1ccc2[nH]c(=O)c(C(c3nnnn3CCOC)N3CCN(c4ccccc4)CC3)cc2c1 (configuration not stated) ; its inhibition = 2.21% (inactive)

====

assay: M. tuberculosis H37Rv growth inhibitors, H37Rv strain (AID 1626); conditions: active compounds read high, concentration not given here;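 further: bacteria incubated seven days before Alamar blue readout; 0% = bacteria only wells and 100% = bacteria with antibiotic wells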
Among all 220,000 compounds or so, about 2,000 (0.91%) were called active. About 2% were inconclusive and are not listed. The list is a sample of the results. Potency and affinity values are given separately.
Listed compounds paired with reported inhibition
Reply numerically in %, unit not repeated.

• CCc1ccccc1N1C[C@@]23C=C[C@@H](O2)C(C(=O)OCC(C)C)[C@H]3C1=O (stereo partly specified) = -0.48
• Cn1nnnc1SCC(=O)Nc1ccc(Oc2ccccc2)cc1 = 57.4
• Nc1nc(N)c(N=Nc2ccc(SCC(=O)O)cc2)c(=O)[nH]1 = -4.15
• CCN1CCN(Cc2ccc(NC(=O)c3cc(NC(=O)c4nccnc4N)cc(OC)c3)cc2C(F)(F)F)CC1 = 6.4
• C=CCSc1nnc(-c2cccnc2)o1 = -5.82

Next:
Short answer for NC(=O)CSc1nnc(-c2ccc([N+](=O)[O-])cc2)o1 : inhibition was -3.14

====

Listed compounds paired with reported inhibition
experiment: M. tuberculosis H37Rv growth inhibitors, H37Rv strain (AID 1626); conditions: active compounds read high, concentration not given here;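 further: bacteria incubated seven days before Alamar blue readout; 0% = bacteria only wells and 100% = bacteria with antibiotic wells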
About 2,000 (0.91%) of roughly 220,000 compounds were called active. Not shown: some 2% with an inconclusive outcome. A selection follows. Potency and affinity values are given separately.
The reply should be a number in %, with the unit left off.

For O=C(Cc1ccc(Cl)c(Cl)c1)Nc1ccc2[nH]c(=O)[nH]c2c1 the compound record lists inhibition as -1.82

Per the records, this compound ( COc1ccc(NC(=O)CCN2CCOCC2)c(OC)c1 ) has inhibition equal to -3.47

Given item COc1ccc(Br)c2oc(S)cc(=O)c12 , the value recorded as its inhibition is -4.76

Briefly, inhibition measured for Cc1c(-n2cc(C(=O)O)c(=O)c3cc(F)c(N4CCCC(O)C4)c(F)c32)c(=O)n(-c2ccccc2)n1C (configuration not stated) : -0.64

The value of inhibition measured for the compound CC(C)N1CCC(N2CCN(C/C=C/c3ccccc3)CC2CCO)CC1 (configuration not stated) turned out to be -1.35

inhibition for O=C(CN1CCCC1)Nc1ccc(OCc2ccccc2)cc1 is -0.61

inhibition measured on COc1ccc(Nc2nc(N)nc(CCl)n2)cc1 = 63.6

Entry CCn1c(C2CCN(S(=O)(=O)c3ccc(OC)cc3)CC2)n[nH]c1=S ; inhibition = 2.92
